Quick reference for Kd (wt)/Kd (mut) among some binders
target.desc: T1, VEGF (human, UniProt P15692-4 27-191, limits assumed)
T1 construct: Biotinylated in the KDR-IgG ELISA, amine-coupled to the chip in BIAcore; also called biotinylated VEGF; vascular endothelial growth factor
test.description: BIAcore-2000 SPR, relative to Y0192

binder | Kd (wt)/Kd (mut)
Y0313-3 (Fab, V domains shown, Soluble Fab) VH: EVQLVESGGGLVQPGGSLRLSCAASGYTFTNYGINWVRQAPGKGLEWVGWINTYTGEPTYAADFKRRFTFSLDTSKSTAYLQMNSLRAEDTAVYYCAKYPYYYGSSHWYFDVWGQGTL VL: DIQLTQSPSSLSASVGDRVTITCRANEQLSNYLNWYQQKPGKAPKVLIYFTSSLHSGVPSRFSGSGSGTDFTLTISSLQPEDFATYYCQQYSTVPWTFGQGTKVEIKR | 4.5 ratio
Y0238-1 (Fab, V domains shown, From library YC-81 on the pY0192 template; Soluble Fab) VH: EVQLVESGGGLVQPGGSLRLSCAASGYTFTNYGINWVRQAPGKGLEWVGWINTYTGEPTYAADFKRRFTFSLDTSKSTAYLQMNSLRAEDTAVYYCAKYPYYRGTSHWYFDVWGQGTL VL: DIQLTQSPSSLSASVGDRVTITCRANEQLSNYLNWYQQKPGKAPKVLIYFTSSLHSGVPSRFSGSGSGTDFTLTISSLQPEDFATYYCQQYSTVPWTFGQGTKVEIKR | 7.3 ratio
Y0238-3 (Fab, V domains shown, Soluble Fab) VH: EVQLVESGGGLVQPGGSLRLSCAASGYTFTNYGINWVRQAPGKGLEWVGWINTYTGEPTYAADFKRRFTFSLDTSKSTAYLQMNSLRAEDTAVYYCAKYPYYYGTSHWYFDVWGQGTL VL: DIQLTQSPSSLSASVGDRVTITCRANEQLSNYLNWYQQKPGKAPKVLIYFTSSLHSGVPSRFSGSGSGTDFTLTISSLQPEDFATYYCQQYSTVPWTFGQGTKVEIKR | ≥ 14 ratio
